system: SF-268 CNS; assay: NCI-60 one-dose screen, 48 h (100 = growth as untreated, 0 = no growth, -100 = all killed); conditions: 10 µM unless noted
The panel holds about 83,000 compounds, 20% with a hit somewhere; the sample as a whole holds those more often.
Field: growth. Provide a value for each of the molecules that follow.
Give bare numbers, in %.

                              line_notation  experimental_result
0  Cc1nn2c(-c3nc4cc(Cl)c(Cl)cc4[nH]3)c(-c3ccc(F)cc3)nc2s1                   28
1  Cc1cc(N2CCCCC2)nc(N(CCNc2ccnc3cc(Cl)ccc23)Cc2ccco2)n1                 60.7

**Q:** Determine reported growth for `Cn1cc(-c2nc(-c3cn(C)c4ncccc34)cs2)c2ccccc21` ; test system: SF-268 CNS.
**A:** 45.4
